// provenance: PubChem BioAssay (NCI)

- assayInfo: NCI Yeast Anticancer Drug Screen. Data for the mlh1 rad18 strain (AID 175)
- experimentalContext: S. cerevisiae mlh1 rad18 strain growth inhibition; at 50.0 µM; stronger effect = higher value
About 79,000 compounds went through this panel and 15% of them were active in at least one assay; those are over-represented in the sample as a whole. Where a SMILES comes first, the peptide text is derived from it. [ ]: non-standard residue; d: D form. The star is where a group is joined. Ac5c = NC1(C(=O)O)CCCC1; Cbz = O=C(OCc1ccccc1)*
Entries and their growth inhibition

{"columns": ["molecule", "growth inhibition (%)"],
 "data": [
  ["C[n+]1ccccc1/C=C/c1ccc([N+](=O)[O-])cc1", 6.3],
  ["Nc1nc2c(c(-c3cccc(Cl)c3)n1)COC/C2=C\\c1cccc(Cl)c1", 24],
  ["CC(=O)CC(SCCSCCSC(CC(C)=O)c1ccccc1)c1ccccc1 (stereo unspecified)", 14.7],
  ["Cc1c(C)c(C)c(S(=O)(=O)NCCNS(=O)(=O)c2c(C)c(C)c(C)c(C)c2C)c(C)c1C", 1.7],
  ["N#Cc1ccccc1-c1ccccc1/C=C/C(=O)O", 12.4],
  ["N#CCCCCC12C3C(=O)N(c4ccccc4)C(=O)C3ON1O[C@@H]1C(=O)N(c3ccccc3)C(=O)[C@@H]12 (stereo partly specified)", 44.4],
  ["O=C1CN(CN2CCOCC2)C(=O)CN1CN1CCOCC1", 32.9],
  ["CN(c1ccc(C(=O)c2ccc(N(C)S(C)(=O)=O)cc2)cc1)S(C)(=O)=O", -6.6],
  ["O=C(CCCCC(=O)N1CCOCC1)N1CCOCC1", -9.4],
  ["C=C(Cl)Cc1c(O)c2c(c(O)c1CC(=C)Cl)C(=O)c1ccccc1C2=O", -33.5],
  ["C[n+]1c(/C=C/c2ccc3c(c2)OCO3)ccc2ccccc21", 14.2],
  ["Oc1ccc2nccnc2c1", 13.1],
  ["CSc1nc2c(N)nc(N)nc2nc1C", 11.5],
  ["CN(C)c1ccc(/C=C2\\Cc3ccccc3C2=O)cc1Br", 12.4],
  ["O=C1C(CN2CCCCC2)CCC1CN1CCCCC1 (stereo unspecified)", 51.5],
  ["O=P(O)(O)CN1CCN(CP(=O)(O)O)CCN(CP(=O)(O)O)CCN(CP(=O)(O)O)CC1", -19.1],
  ["O=S(=O)(OC12CCCCC1CN1CCCCC1C2)c1ccc(Br)cc1 (stereo unspecified)", 12.8],
  ["CCOC(=O)C1(C(=O)OCC)CSC1", -22.3],
  ["O=C1OCc2c[n+]([O-])ccc21", 4.35],
  ["CCc1cccc(C)c1NC(=O)C1=C(C)NC(C)=C(C(=O)Nc2c(C)cccc2CC)C1c1ccc([N+](=O)[O-])cc1", 46.7],
  ["O=CN(CCO)CCO", -4.2],
  ["c1ccc(CN2CCC(=NN3CCCCC3)CC2)cc1", -8.55],
  ["COC(=O)[C@]1(C)CCC[C@]2(C)c3cc(Br)c(C(C)C)cc3CC[C@H]12", -1.8],
  ["CC(c1ccccc1)C(OCc1ccccc1)OCc1ccccc1 (stereo unspecified)", 1.2],
  ["CN1CCN(CN2C(=O)C3C4C=CC(C3C2=O)C2C(=O)N(CN3CCN(C)CC3)C(=O)C42)CC1 (stereo unspecified)", 16.9],
  ["CC(=O)c1ccc(N2C(=O)C3c4[nH]c5ccccc5c4C4CCC(C(C)(C)C)CC4C3C2=O)cc1 (stereo unspecified)", 18.4],
  ["O=C(CC(=O)c1ccccc1)CC(=O)c1ccc(C(=O)CC(=O)CC(=O)c2ccccc2)cc1", 22.4],
  ["Cc1ccc(C(=O)N2CCCCC2)cc1N=NN(C)C", -21.1],
  ["Cc1cc2ccc(OC(=O)c3ccc(N=C(N)N)cc3)cc2oc1=O", 13.7],
  ["COc1ccc(CC2CCCNC2C(=O)O)cc1 (stereo unspecified)", 10.8],
  ["CO/C(=N\\N=C\\c1ccc(OC)c(OC)c1)c1ccncc1", -40],
  ["O=C(O)CNC(=O)C1(NC(=O)CNC(=O)OCc2ccccc2)CCCC1 (Cbz-Gly-[Ac5c]-Gly-OH)", 18.3],
  ["Cc1cccc(C(C)C)c1NC(=O)C(=O)CC(=O)c1sc(Nc2ccccc2Cl)nc1C", 1.15],
  ["COc1cc(NCCC2CCCCN2C)c2ncccc2c1 (stereo unspecified)", 22.1],
  ["Cc1ccc(C(=O)Oc2ccccc2)cc1N=NN(C)C", -24.1],
  ["O=c1/c(=C/c2ccccc2O)sc2nc3ccccc3n12", 20.9],
  ["CC1CN(CNC(=O)NCN2CC(C)OC(C)C2)CC(C)O1 (stereo unspecified)", -0.8],
  ["Nc1ccc(Cl)cc1[N+](=O)[O-]", 15.8],
  ["CN(C)N=Nc1c(Cl)cccc1Cl", 7.75],
  ["CN(/N=C/c1ccnc2ccccc12)c1ccc([N+](=O)[O-])cc1[N+](=O)[O-]", -12.6],
  ["Oc1ccccc1C=Nc1ccccc1", -2.4],
  ["Cc1cc2c(c3c1C(=O)CC3)CCCC2(C)C", -1.8],
  ["C(=C\\c1cc(-c2ccc3ccccc3n2)nc2ccc3ccccc3c12)/c1ccc2ccccc2n1", -11.2],
  ["N#Cc1nc(CC(=O)c2ccccc2Cl)c(CC(=O)c2ccccc2Cl)nc1C#N", 19.4],
  ["O=C(Cl)c1cc(-c2ccccc2)nc2c(Cl)cccc12", 38],
  ["C[N+](C)(CCO)CCO", 13.1]
]}
